Kindly supply the reported Percent Similarity Score (KD on hN) values for the records listed here.
- targetSystem: T1, human NGF (human, UniProt P01138 122-241)
- T1 construct: also called human Nerve Growth Factor; hN
- T1 chain: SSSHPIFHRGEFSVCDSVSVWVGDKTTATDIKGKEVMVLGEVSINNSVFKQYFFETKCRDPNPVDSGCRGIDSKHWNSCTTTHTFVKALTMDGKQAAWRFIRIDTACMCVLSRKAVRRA
- experimentalProtocol: SPR (Biacore T200), 100 nM mAb on NGF chip, similarity to parent mAb
- From the text: The region of an antibody responsible for antigen recognition represents the paratope. A paratope is created by a combination of amino acids in the complementarity determining regions (CDRs) of both the heavy and light chain variable regions. The binding between antibody and antigen is often mediated by side chains of CDR residues with side chains or carbohydrate moieties of the antigen. […]
Response body: numeric value in %, unit text excluded.

Percent Similarity Score (KD on hN) recorded for this binder, can9L12VL_N52A (antibody, V domains shown) VH: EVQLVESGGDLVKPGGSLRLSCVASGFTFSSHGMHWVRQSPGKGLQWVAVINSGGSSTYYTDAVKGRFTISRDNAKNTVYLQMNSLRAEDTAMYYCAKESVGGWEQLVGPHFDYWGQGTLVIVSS VL: QSVLTQPTSVSGSLGQRVTISCSGSTNNIGILGASWYQLFPGKAPKLLVYGAGNRPSGVPDRFSGADSGDSVTLTITGLQAEDEADYYCQSFDTTLGAHVFGGGTHLTVL , is 100

Percent Similarity Score (KD on hN) recorded for this binder, can48L2VL_G33A (antibody, V domains shown, CDR scanning mutant of ZTS-842 (48L2)) VH: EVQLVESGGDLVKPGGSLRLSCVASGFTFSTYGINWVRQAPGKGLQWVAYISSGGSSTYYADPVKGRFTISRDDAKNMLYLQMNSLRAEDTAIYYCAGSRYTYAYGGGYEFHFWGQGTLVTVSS VL: QAVLNQPASVSGALGQKVTISCSGSTMDIDIFAVSWYQQLPGKAPKLLVDSDGDRPSGIPDRFSGSRSGNSGTLTITGLQAEDEADYHCQSGDSTLGALAIFGGGTHVTVL , is 56.6

Percent Similarity Score (KD on hN) recorded for this binder, can9L12VH_S100A (antibody, V domains shown) VH: EVQLVESGGDLVKPGGSLRLSCVASGFTFSSHGMHWVRQSPGKGLQWVAVINSGGSSTYYTDAVKGRFTISRDNAKNTVYLQMNSLRAEDTAMYYCAKEAVGGWEQLVGPHFDYWGQGTLVIVSS VL: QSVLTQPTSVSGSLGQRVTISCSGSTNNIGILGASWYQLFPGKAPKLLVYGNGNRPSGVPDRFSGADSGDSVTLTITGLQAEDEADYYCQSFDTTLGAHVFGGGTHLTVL , is 42.1

Percent Similarity Score (KD on hN) recorded for this binder, can9L12VH_F27A (antibody, V domains shown) VH: EVQLVESGGDLVKPGGSLRLSCVASGATFSSHGMHWVRQSPGKGLQWVAVINSGGSSTYYTDAVKGRFTISRDNAKNTVYLQMNSLRAEDTAMYYCAKESVGGWEQLVGPHFDYWGQGTLVIVSS VL: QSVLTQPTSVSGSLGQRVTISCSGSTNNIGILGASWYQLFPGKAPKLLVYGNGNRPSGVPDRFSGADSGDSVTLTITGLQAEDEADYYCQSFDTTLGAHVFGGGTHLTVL , is 100

Percent Similarity Score (KD on hN) recorded for this binder, can48L2VH_S56A (antibody, V domains shown, CDR scanning mutant of ZTS-842 (48L2)) VH: EVQLVESGGDLVKPGGSLRLSCVASGFTFSTYGINWVRQAPGKGLQWVAYISSGGASTYYADPVKGRFTISRDDAKNMLYLQMNSLRAEDTAIYYCAGSRYTYAYGGGYEFHFWGQGTLVTVSS VL: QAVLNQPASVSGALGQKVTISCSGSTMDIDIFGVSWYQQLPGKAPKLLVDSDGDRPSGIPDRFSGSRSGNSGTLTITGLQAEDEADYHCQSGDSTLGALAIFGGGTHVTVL , is 99.9

Percent Similarity Score (KD on hN) recorded for this binder, can9L12VL_L32A (antibody, V domains shown) VH: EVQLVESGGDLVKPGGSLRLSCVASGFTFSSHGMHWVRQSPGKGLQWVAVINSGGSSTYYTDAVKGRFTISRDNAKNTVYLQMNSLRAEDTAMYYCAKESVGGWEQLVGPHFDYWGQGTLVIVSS VL: QSVLTQPTSVSGSLGQRVTISCSGSTNNIGIAGASWYQLFPGKAPKLLVYGNGNRPSGVPDRFSGADSGDSVTLTITGLQAEDEADYYCQSFDTTLGAHVFGGGTHLTVL , is 1.5

Percent Similarity Score (KD on hN) recorded for this binder, can48L2VL_T95A (antibody, V domains shown, CDR scanning mutant of ZTS-842 (48L2)) VH: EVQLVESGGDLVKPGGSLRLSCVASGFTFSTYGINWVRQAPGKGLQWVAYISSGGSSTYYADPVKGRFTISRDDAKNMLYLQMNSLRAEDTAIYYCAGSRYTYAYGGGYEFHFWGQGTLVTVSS VL: QAVLNQPASVSGALGQKVTISCSGSTMDIDIFGVSWYQQLPGKAPKLLVDSDGDRPSGIPDRFSGSRSGNSGTLTITGLQAEDEADYHCQSGDSALGALAIFGGGTHVTVL , is 99.6

Percent Similarity Score (KD on hN) recorded for this binder, can48L2VL_I29A (antibody, V domains shown, CDR scanning mutant of ZTS-842 (48L2)) VH: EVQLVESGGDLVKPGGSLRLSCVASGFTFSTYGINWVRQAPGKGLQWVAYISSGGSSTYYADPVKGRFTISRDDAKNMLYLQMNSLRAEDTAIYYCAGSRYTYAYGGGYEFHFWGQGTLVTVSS VL: QAVLNQPASVSGALGQKVTISCSGSTMDADIFGVSWYQQLPGKAPKLLVDSDGDRPSGIPDRFSGSRSGNSGTLTITGLQAEDEADYHCQSGDSTLGALAIFGGGTHVTVL , is 97.8

Percent Similarity Score (KD on hN) recorded for this binder, can9L12VH_Q106A (antibody, V domains shown) VH: EVQLVESGGDLVKPGGSLRLSCVASGFTFSSHGMHWVRQSPGKGLQWVAVINSGGSSTYYTDAVKGRFTISRDNAKNTVYLQMNSLRAEDTAMYYCAKESVGGWEALVGPHFDYWGQGTLVIVSS VL: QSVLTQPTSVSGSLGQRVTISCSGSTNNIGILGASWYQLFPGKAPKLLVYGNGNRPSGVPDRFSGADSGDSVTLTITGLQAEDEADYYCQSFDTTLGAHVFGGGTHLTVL , is 100

Percent Similarity Score (KD on hN) recorded for this binder, can9L12VH_S57A (antibody, V domains shown) VH: EVQLVESGGDLVKPGGSLRLSCVASGFTFSSHGMHWVRQSPGKGLQWVAVINSGGSATYYTDAVKGRFTISRDNAKNTVYLQMNSLRAEDTAMYYCAKESVGGWEQLVGPHFDYWGQGTLVIVSS VL: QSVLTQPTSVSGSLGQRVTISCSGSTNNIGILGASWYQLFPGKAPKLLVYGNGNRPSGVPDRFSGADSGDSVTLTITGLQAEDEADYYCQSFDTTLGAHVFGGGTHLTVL , is 33.4
